The measured values listed here are drawn from PubChem BioAssay (Tox21).

- method_summary: qHTS RealTime-Glo MT Cell Viability Assay in HEK293 cells - 40 hour (AID 1224874); further: on the % scale 0 is the no-effect control and ±100 the full control effect; nearly all actives have a fitted effect of over 50% in size
- conditions: RealTime-Glo luminescence; hits give low values
Inconclusive results are not listed. Calls of active or inactive are those of the source. The call rests on the fitted dose curve; in most records, active means well fitted cell-killing curve with a large enough effect in the repeat runs; inconclusive means weak or mixed curves, or effect the other way; inactive means flat fitted curve, though single readings scatter.
measurement_type: max response

> print(dat)
                                    molecule  measurement.type          test.value
 1  CCOC(=O)C(Cl)Cc1cc(-n2nc(C)n(C(F)F)c2=O)c(F)cc1Cl (stereo not given)      max response    2.36% (inactive)
 2  CCC1(c2ccccc2)C(=O)N(COC)C(=O)N(COC)C1=O      max response    2.07% (inactive)
 3                     C=C(Cl)CSC(=S)N(CC)CC      max response     -15% (inactive)
 4    Cn1c(CCCC(=O)O)nc2cc(N(CCCl)CCCl)ccc21      max response     1.4% (inactive)
 5           CCN[C@@H](C)Cc1cccc(C(F)(F)F)c1      max response    2.94% (inactive)
 6                        O=C(Cl)C(Cl)(Cl)Cl      max response    1.29% (inactive)
 7                                O=C(Cl)CCl      max response   0.179% (inactive)
 8              CCOP(=S)(OCC)Oc1ccc(Cl)cc1Cl      max response    2.64% (inactive)
 9                                 O=C(O)CBr      max response  -0.861% (inactive)
10  Cc1ccc(S(=O)(=O)N[C@@H](CCCCN)C(=O)CCl)cc1      max response    2.57% (inactive)

So for Clc1nc(Cl)nc(Nc2ccccc2Cl)n1 , the logged max response turned out to be 11.5% (inactive)

Input COC(=O)[C@@H](N)CCCN/C(N)=N/[N+](=O)[O-] . Output max response: 6.22% (inactive)

// Cc1cccc2sc3nncn3c12 : max response value = 22% (inactive)

Short answer for ClCOCCl : max response was 12.2% (inactive)

max response in this record for CC(O)CCl (stereo not given) : 1.35% (inactive)

Quick note, max response for CC(C)(O)C(Cl)(Cl)Cl landed at 4.01% (inactive)

Notebook: C[C@H](N)C(=O)c1ccccc1 , max response read as -10.2% (inactive)

Kindly note the recorded max response for CCC(=O)OC1(c2ccccc2)CCN(C)CC1 , which is -7.76% (inactive)

response.value for [P]#[In] (field: max response) = 0.3% (inactive)

max response reported for this molecule CCOC(=O)NC(C)(C)Cc1ccc(Cl)cc1 : 0.66% (inactive)

Entry N[C@@H]1C[C@H]1c1ccccc1 ; max response = 1.46% (inactive)

// field: max response; key: O=CCCl ; value = 6.03% (inactive)

max response in this record for Cc1cc(OC(=O)N(C)C)nn1C(=O)N(C)C : 2% (inactive)

Form: molecule = C#CC(C)(C)O ; max response = 6.71% (inactive)

* * *

- assayed_system: Nuclear receptor subfamily 1 group I member 3 (Homo sapiens)
- method_summary: qHTS assay to identify small molecule antagonists of the constitutive androstane receptor (CAR) signaling pathway (AID 1224838);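 further: HepG2 cells stably expressing hCAR with CYP2B6 luciferase reporter stimulated by CITCO; on the % scale 0 is the no-effect control and ±100 the full control effect; nearly all actives have a fitted effect of over 40% in size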
- conditions: HepG2-CYP2B6-hCAR luciferase, CITCO-stimulated, 24 h; series mostly up to 92.4 µM
Results filed as inconclusive are left out. The source made the active and inactive calls. The call rests on the fitted dose curve; in most records, active means well fitted inhibition curve with a large enough effect in the repeat runs; inconclusive means weak or mixed curves, or effect the other way; inactive means no such curve, though single readings can be large or run the other way.
Outcome field: choose from 1 (active), 0 (inactive)

As a guide, the following entries are already answered.
> print(dat)
                                   compound  assigned.class
1                              CC(Cl)(Cl)Cl               0
2                                    O=CCCl               0
3  CN1C(=O)COc2c(C(=O)NC3CN4CCC3CC4)cc(Cl)cc21 (stereo unspecified)               0
4                             CN(C)C1CCCCC1               0
5                CCNc1nc(Cl)nc(NC(C)(C)C)n1               0
6  CC(Cc1ccccc1)NCCCCl (stereo unspecified)               0

Exercise: Just curious, what result did CCC(C(N)=O)N1CCCC1=O (stereo unspecified) get here?
Key: 0

Exercise: Given CN(CCO)CCO , state the outcome it received in this test.
Key: 0

Exercise: Recorded call for Nc1c(Cl)c(F)nc(OCC(=O)O)c1Cl ?
Key: 0

Exercise: How was CCOC(=O)C(Cl)Cc1cc(-n2nc(C)n(C(F)F)c2=O)c(F)cc1Cl (stereo unspecified) classified in this test?
Key: 0

Exercise: Would you mind telling me which call this test gave c1ccc2c(c1)CCNC2 ?
Key: 0

Exercise: Could you kindly confirm the outcome this assay logged for O=C(O)c1c(Cl)ccc2cc(Cl)cnc12 ?
Key: 0

Exercise: Could you check what this test reported for O=c1[nH]c2ccccc2o1 ?
Key: 0
